# key: entry, value: Mean % WT Binding
- Tgt: human CD33 variant M120L (human, UniProt P20138 18-364)
- Sequence (P20138 18-364 M120L limits assumed): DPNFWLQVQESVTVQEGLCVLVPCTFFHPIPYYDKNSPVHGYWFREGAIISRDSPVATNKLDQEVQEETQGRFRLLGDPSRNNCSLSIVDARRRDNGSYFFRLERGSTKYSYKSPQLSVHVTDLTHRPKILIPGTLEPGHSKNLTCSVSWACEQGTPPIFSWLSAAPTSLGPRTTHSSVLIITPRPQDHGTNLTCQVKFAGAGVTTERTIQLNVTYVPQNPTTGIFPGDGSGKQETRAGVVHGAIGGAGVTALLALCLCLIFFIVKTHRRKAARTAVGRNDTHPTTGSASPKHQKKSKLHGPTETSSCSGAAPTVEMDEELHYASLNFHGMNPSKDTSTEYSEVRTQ
- Test protocol: flow cytometry, IgG on cells expressing the mutant

In the examples that follow, each entry is paired with its recorded Mean % WT Binding.
Binder | Experimental readout | Reported
Refmab #2 (antibody, human IgG1, V domains shown, Tested in IgG format; human IgG1 Fc silent (PG-LALA)) VH: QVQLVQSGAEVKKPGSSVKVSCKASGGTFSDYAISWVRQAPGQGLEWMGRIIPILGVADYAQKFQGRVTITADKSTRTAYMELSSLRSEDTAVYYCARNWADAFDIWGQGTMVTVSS VL: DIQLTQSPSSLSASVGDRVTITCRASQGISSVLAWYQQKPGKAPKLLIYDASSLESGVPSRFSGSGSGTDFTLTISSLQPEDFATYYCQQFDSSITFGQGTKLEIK | Mean % WT Binding | 124 % of WT
Refmab #3 (antibody, human IgG1, V domains shown, Tested in IgG format; human IgG1 Fc silent (PG-LALA)) VH: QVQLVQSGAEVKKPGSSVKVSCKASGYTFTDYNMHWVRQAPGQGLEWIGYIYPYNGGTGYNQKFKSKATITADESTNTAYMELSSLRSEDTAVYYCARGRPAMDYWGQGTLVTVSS VL: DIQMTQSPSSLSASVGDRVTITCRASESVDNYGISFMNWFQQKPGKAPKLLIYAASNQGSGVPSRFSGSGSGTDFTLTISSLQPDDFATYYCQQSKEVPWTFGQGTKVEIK | Mean % WT Binding | 90.8 % of WT
Refmab #1 (antibody, human IgG1, V domains shown, Tested in IgG format; human IgG1 (Absolute Antibody hP67.6, Cat. No. Ab00283-10.0); also called hP67.6) VH: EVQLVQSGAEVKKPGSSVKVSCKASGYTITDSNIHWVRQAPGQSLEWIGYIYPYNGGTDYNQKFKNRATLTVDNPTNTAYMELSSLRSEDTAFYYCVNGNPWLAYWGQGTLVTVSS VL: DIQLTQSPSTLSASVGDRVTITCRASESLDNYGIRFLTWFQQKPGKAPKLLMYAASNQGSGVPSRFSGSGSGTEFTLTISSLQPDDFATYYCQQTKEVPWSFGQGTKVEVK | Mean % WT Binding | 98.4 % of WT

// Mean % WT Binding value for Refmab #4 (antibody, human IgG1, V domains shown, Tested in IgG format; human IgG1 Fc silent (PG-LALA)) VH: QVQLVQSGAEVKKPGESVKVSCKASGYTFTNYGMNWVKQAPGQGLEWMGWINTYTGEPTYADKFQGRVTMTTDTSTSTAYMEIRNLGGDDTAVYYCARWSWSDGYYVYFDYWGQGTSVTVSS VL: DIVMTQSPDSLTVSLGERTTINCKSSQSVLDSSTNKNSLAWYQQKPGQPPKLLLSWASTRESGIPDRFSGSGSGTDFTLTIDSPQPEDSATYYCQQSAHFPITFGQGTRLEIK : 110 % of WT
